Task for the reader: assign each of the following compounds its reported log10 of EC50.
# target.entity: 5-HT2C (Homo sapiens, UniProt P28335)
# Sequence (P28335 33-458): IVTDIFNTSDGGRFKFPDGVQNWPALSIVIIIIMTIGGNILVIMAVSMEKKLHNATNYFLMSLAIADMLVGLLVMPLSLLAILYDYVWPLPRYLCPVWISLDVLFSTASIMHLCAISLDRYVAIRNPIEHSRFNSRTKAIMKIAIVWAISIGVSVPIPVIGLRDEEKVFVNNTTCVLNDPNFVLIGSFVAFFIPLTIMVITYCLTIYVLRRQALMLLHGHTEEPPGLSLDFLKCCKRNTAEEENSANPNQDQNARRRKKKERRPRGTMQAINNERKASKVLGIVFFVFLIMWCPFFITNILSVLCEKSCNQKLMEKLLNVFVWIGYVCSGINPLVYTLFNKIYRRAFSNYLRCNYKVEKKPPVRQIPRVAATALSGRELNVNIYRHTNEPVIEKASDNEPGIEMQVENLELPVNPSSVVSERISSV
# assay.overview: BRET Gq dissociation, 5-HT2C
# Format: cell-based
# Parameters: expressed in transfected cells; host or cells: HEK293T, transient
# condition.parameters: read-out: 5-HT2C Gq Dissociation (BRET) pEC50 ± SEM (converted)
# Method: After at least 18-24 hours, transfected cells were plated in poly-lysine coated 96-well white clear bottom cell culture plates in DMEM containing 1% dialyzed FBS at a density of 25-40,000 cells in 200 μL per well and incubated overnight. […] Fifteen minutes before reading, 10 μL of the RLuc substrate, either coelenterazine h for β-Arrestin recruitment BRET^1 or coelenterazine 400a for Gq dissociation BRET^2 (Prolume/Nanolight, 5 μM final concentration) was addedper well. […]
Plainly stated, the numbers are log10 of EC50 given in nM.

Lab note: COc1cc(OC)c(OC)cc1CCNCc1ccccc1-c1ccco1 gave log10 of EC50 of 1.15

get_value(item= COc1cc(CCNCc2cccc(C)c2O)cc(OC)c1Br , readout=log10 of EC50) returns 0.85

# compound COc1cc(OC)c(OC)cc1CCNCc1cccc(-c2ccccc2)c1 ; its log10 of EC50 = 2.34

Noted for COc1cc(OC)c(OC)cc1CCNCc1ccccc1Oc1ccccc1 : its log10 of EC50 reads 3.23

Given item COc1cc(CCNCc2cccc3ccccc23)cc(OC)c1Br , the value recorded as its log10 of EC50 is 1.62

* * *

# target.entity: UniProt:P28223
# Sequence (P28223 whole entry): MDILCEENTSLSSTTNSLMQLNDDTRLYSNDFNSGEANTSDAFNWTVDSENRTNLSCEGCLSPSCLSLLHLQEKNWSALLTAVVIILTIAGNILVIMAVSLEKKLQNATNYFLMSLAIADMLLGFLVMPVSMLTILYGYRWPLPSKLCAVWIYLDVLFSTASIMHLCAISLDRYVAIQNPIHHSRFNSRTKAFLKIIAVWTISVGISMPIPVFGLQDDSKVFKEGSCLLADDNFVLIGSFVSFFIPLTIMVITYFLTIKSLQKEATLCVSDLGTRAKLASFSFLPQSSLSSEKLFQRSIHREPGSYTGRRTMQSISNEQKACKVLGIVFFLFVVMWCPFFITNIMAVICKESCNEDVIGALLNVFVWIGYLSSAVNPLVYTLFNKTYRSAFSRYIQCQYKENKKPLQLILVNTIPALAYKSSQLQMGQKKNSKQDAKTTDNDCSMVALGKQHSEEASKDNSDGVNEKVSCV
# assay.overview: cell-based
# Set-up: expressed in transfected cells; host or cells: HEK293T, transient
# condition.parameters: BRET, mean ± SEM; read-out: 5-HT2A β-arrestin recruitment pEC50 (converted)
Decide using EC50 alone. Strictly below 9 nM: Satisfied. Equal to or above 9 nM: Not satisfied.

Hi there! Is EC50 for COc1cc(OC)c(OC)cc1CCNCc1ccccc1-c1cccs1 below 9 nM, do you know?
Satisfied

Identify whether the compound Brc1c2c(c(CCNCc3cccc4ccccc34)c3c1OCC3)OCC2 records EC50 below 9 nM.
Satisfied

Does this compound meet the criterion EC50 < 9 nM? COc1cc(OC)c(OC)cc1CCNCc1cccc2c1CCCC2
Satisfied

Field: below-cutoff. Rule: recorded EC50 strictly less than 9 nM. Subject: COc1cc(OC)c(OC)cc1CCNCc1c[nH]nc1-c1ccccc1
Not satisfied

Consider the compound COc1cc(OC)c(OC)cc1CCNCc1cccc2ccccc12 . Is its EC50 strictly less than 9 nM?
Satisfied

* * *

# target.entity: 5-HT2C (Homo sapiens)
# assay.overview: BRET Gq dissociation, 5-HT2C
# Format: cell-based
# Parameters: expressed in transfected cells; host or cells: HEK293T, transient
# condition.parameters: read-out: 5-HT2C Gq Dissociation (BRET) EMAX ± SEM (%5-HT)
For each record, write down the corresponding Emax.

// field: Emax; key: COc1cc(OC)c(OC)cc1CCNCc1cccc(-c2ccccc2)c1 ; value = 72.8%

Record COc1cc([N+](=O)[O-])c(OC)cc1CCN [2C-N (1), reference compound] , field Emax: 78.4%

Record COc1cc([N+](=O)[O-])c(OC)cc1CCNCc1ccccc1I [25N-NBI (10)] , field Emax: 71.5%

Entry COc1cc(CCNCc2cccc3ccccc23)ccc1Cl — recorded Emax = 87.8%

Item: COc1cc(OC)c(OC)cc1CCNCc1cccc2cccnc12 | Emax: 90.5%

Query COc1cc([N+](=O)[O-])c(OC)cc1CCNCc1ccccc1C [25N-NBMe (6)] yields Emax of 89.4%

Item: COc1cc(OC)c(OC)cc1CCNCc1ccccc1-c1ccc(O)cc1 | Emax: 80.6%

Per the record, COc1cc([N+](=O)[O-])c(OC)cc1CCNCc1ccccc1Cl [25N-NBCl (8)] has Emax of 82.5%

// sample COc1cc(Br)c(Br)c(OC)c1CCNCc1cccc2ccccc12 , its Emax was 69.8%

Form field Emax, entry COc1cc(Br)ccc1CCNCc1cccc(C)c1O : 72.2%

Per the record, COc1cc(Cl)ccc1CC(C)NCc1cccc(C)c1O (stereo not shown) has Emax of 95.5%

Reported Emax for COc1cc(OC)c(OC)cc1CCNCc1cccc2ccccc12 was 64.4%

Entry under test: COc1cc(CCNCc2cccc(C)c2O)ccc1Cl . Its Emax was 98%

Consider COc1cc(Br)cc(OC)c1CCNCc1cccc2ccccc12 . Its measured Emax is 81%

Sample COc1cc(OC)c(OC)cc1CCNCc1ccccc1Oc1ccccc1 ; Emax observed: 113%

Record COc1cc(OC)c(OC)cc1CCNCc1cccc(-c2ccccc2)c1O , field Emax: 79.2%

COc1cc([N+](=O)[O-])c(OC)cc1CCNCc1cccc(C)c1O [25N-NB-2-OH-3-Me (18)] has a reported Emax of 45.8%

Sure, the documented Emax for COc1cc(CCNCc2cccc3ccccc23)cc(OC)c1Br is 80.2%

Measured Emax of COc1cc(OC)c(OC)cc1CCNCc1cccc(F)c1F : 83.3%

Memo: COc1cc(Br)c(CCNCc2cccc3ccccc23)cc1OC , reported Emax: 81.4%

// Emax lookup, molecule = COc1cc(OC)c(OC)cc1CCNCc1cccc2ncccc12 , result: 77.6%

Recorded result, CCOc1ccc(CCNCc2cccc3ccccc23)cc1OC , Emax: 84.5%

* * *

Please go through the items and note down their 5-HT2A/5-HT2c Selectivity Factor ΔLog(Emax/EC50).
# Tested on: 5-HT2A
# assay.overview: Ca2+ flux assay, 5-HT2A
# Format: cell-based, human
# condition.parameters: Gq/11 Ca2+ mobilization; higher number = skewed towards 5-HT2A
Form: value (number only, do not type unit).

Entry COc1cc([N+](=O)[O-])c(OC)cc1CCNCc1ccccc1[N+](=O)[O-] [25N-NBNO2 (15)] , 5-HT2A data, 5-HT2A/5-HT2c Selectivity Factor ΔLog(Emax/EC50) value: 66.8

Value (5-HT2A/5-HT2c Selectivity Factor ΔLog(Emax/EC50), 5-HT2A) for record COc1cc([N+](=O)[O-])c(OC)cc1CCNCc1ccccc1OC(F)F [25N-NBOCF2H (11)] = 1.9

Hey, 5-HT2A data for COc1cc([N+](=O)[O-])c(OC)cc1CCNCc1cccc(F)c1OC [25N-NB-2-MeO-3-F (19)] : 5-HT2A/5-HT2c Selectivity Factor ΔLog(Emax/EC50) came out at 33.8

* * *

# target.entity: 5-HT2C (Homo sapiens, UniProt P28335)
# assay.overview: BRET Gq dissociation, 5-HT2C
# Type: cell-based
# Set-up: expressed in transfected cells; host or cells: HEK293T, transient
# condition.parameters: read-out: 5-HT2C Gq Dissociation (BRET) pEC50 ± SEM (converted)
parameter: EC50 (nM)
Answer in nM, number only, no unit symbol.

Field EC50 (entry COc1cc(OC)c(OC)cc1CCNCc1cccc2ncccc12 ) reads 200

Brc1c2c(c(CCNCc3cccc4ccccc34)c3c1OCC3)OCC2 yielded EC50 of 4.17

The recorded EC50 for COc1cc2c(cc1CCNCc1cccc3ccccc13)OCO2 is 17

EC50 recorded for this molecule, COc1cc(CCNCc2ccccc2OC)c(OC)cc1I [Compound 25I-NBOMe, reference compound] , is 0.0977

Briefly, EC50 measured for COc1cc(OC)c(OC)cc1CCNCc1cccc(Br)c1O : 174

Sample COc1cc(Br)cc(OC)c1CC(C)NCc1cccc2ccccc12 (stereo not shown) ; EC50 observed: 64.6

EC50 in this record for COc1cc(OC)c(OC)cc1CCNCc1cccc(I)c1O : 26.9

EC50 measured on COc1cc(Cl)ccc1CCNCc1cccc2ccccc12 = 38

Sure, the documented EC50 for COc1cc(Br)cc(OC)c1CCNCc1cccc2ccccc12 is 6.31

Data point: COc1cc(OC)c(OC)cc1CCNCc1cccc2c1CCCC2 ; EC50 = 34.7

The recorded EC50 for COc1cc(Br)c(CCNCc2cccc3ccccc23)cc1OC is 66.1

What the record says about COc1cc(Cl)ccc1CC(C)NCc1cccc(C)c1O (stereo not shown) : EC50 is 11.5

Lab note: measured EC50 of COc1cc(Br)ccc1CCNCc1cccc(C)c1O was 4.9

Input COc1cc(OC)c(OC)cc1CCNCc1cccc2c1CCC2 . Output EC50: 93.3

// EC50 value for COc1cc(Br)c(Br)c(OC)c1CCNCc1cccc2ccccc12 : 5.5

// EC50 value for COc1cc(OC)c(OC)cc1CCNCc1cccc2cnccc12 : 126

# EC50 of COc1cc(OC)c(OC)cc1CCNCc1cccc2cccnc12 = 14.8

Form field EC50, entry COc1cc(OC)c(OC)cc1CCNCc1cccc(C)c1C : 1.55

In plain terms, CCOc1ccc(CCNCc2cccc3ccccc23)cc1OC has a documented EC50 of 263

COc1cc(Br)c(Br)c(OC)c1CCNCc1cccc(C)c1O has a reported EC50 of 1.51

Per the record, COc1cc(OC)c(OC)cc1CCNCc1ccccc1-c1ccc(O)cc1 has EC50 of 1700

So, COc1cc(CCNCc2cccc(C)c2O)ccc1Cl ? Its EC50 was 19.5
